The reported numbers originate from the supplement of paper PMC12042874.

Test: amyloid nucleation score (Sup35N fusion, yeast selection) (log enrichment); library NNK2; higher = more nucleation; inactive = no reads after selection;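 also: zero at mode of non-aggregating sequences after 7 days selection at 30°C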
Listed here are substances together with their documented amyloid nucleation score.
// print number alone

Data request, read-out amyloid nucleation score, for RITWFVIFIHCCKGLIR -0.369

Query (substance): KRYTHRCKPFTLHHLPVDAR ; field requested: amyloid nucleation score 1.25

Would you kindly share the measured amyloid nucleation score for IVSSGPIKLNTSCFRTAYML ? -0.854

# lookup: amyloid nucleation score of VCLFLSNQRMWYVEFNTC -0.549

What does the data say about its amyloid nucleation score? Entry: TAHHITSVWYVVLVRLRFRQ 1.76

GET /values?readout=amyloid nucleation score&item= KTIRRDVCIVVLSLQSDLNM 5.62

Given SLIGTRLIGAAGISSVKRLY , state its recorded amyloid nucleation score. 0.208
